src = patent US20190016689A1

# assay.summary: Plasma and brain exposure in male CD-1 mice (Brain PK)
# Type: in vivo
# test.parameters: CD-1, mouse, po, brain, p.o. 25 mg/kg free base
value.type: Tmax (h)
One number for each entry, in h.

Sample answers from the record:
CN(C)C/C=C/C(=O)Nc1cc2c(Nc3ccc(F)c(Cl)c3F)ncnc2cc1OCCOC(F)F.O=C(O)/C=C\C(=O)O.O=C(O)/C=C\C(=O)O
2
CN(C)C/C=C/C(=O)Nc1cc2c(Nc3ccc(F)c(Cl)c3)ncnc2cc1O[C@H]1CCOC1 [Afatinib, reference compound]
4

Inquiry: Fill in: Tmax of O=C(/C=C/CN1CCCCC1)Nc1cc2c(Nc3ccc(F)c(Cl)c3F)ncnc2cc1OCCOC(F)F.O=C(O)/C=C\C(=O)O.O=C(O)/C=C\C(=O)O is ___
Reply text: 2

====

# target.of.assay: EGFR (T790M) (Homo sapiens, UniProt P00533, T790M, form not given)
# Sequence (P00533 whole entry T790M, form open): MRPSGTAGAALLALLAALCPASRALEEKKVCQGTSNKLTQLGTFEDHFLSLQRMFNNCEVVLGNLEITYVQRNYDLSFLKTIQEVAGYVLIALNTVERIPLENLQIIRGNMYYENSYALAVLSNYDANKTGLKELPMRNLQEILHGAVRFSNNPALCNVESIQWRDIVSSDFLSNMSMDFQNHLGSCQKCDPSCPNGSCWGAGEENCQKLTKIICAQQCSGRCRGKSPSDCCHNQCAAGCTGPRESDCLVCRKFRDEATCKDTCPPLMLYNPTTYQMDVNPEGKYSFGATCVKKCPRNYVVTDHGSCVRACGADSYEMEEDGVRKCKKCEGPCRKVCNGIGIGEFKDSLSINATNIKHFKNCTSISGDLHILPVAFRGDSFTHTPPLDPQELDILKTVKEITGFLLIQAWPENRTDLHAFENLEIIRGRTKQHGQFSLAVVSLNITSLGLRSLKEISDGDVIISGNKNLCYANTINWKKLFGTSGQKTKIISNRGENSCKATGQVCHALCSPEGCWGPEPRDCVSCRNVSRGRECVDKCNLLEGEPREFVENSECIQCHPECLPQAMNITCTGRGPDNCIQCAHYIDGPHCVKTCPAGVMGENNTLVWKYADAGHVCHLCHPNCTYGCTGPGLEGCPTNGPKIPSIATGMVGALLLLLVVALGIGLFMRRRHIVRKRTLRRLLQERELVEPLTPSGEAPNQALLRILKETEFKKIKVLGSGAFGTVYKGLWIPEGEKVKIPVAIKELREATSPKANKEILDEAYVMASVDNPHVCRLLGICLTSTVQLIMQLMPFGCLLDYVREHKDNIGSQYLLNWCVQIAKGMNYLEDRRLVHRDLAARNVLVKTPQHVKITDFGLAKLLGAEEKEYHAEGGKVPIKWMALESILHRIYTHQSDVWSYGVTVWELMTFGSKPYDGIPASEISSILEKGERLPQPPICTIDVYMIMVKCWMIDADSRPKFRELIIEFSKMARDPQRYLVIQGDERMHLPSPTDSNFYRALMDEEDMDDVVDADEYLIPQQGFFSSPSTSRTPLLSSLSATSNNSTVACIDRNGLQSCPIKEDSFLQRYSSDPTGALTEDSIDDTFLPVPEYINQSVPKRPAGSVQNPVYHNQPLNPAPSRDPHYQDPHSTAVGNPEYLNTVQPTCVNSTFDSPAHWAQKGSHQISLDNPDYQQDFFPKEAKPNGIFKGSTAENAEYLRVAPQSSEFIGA
# assay.summary: Kinase HotSpot profiling (33P-ATP filter binding)
value.type: IC50
Hey, just the number and the unit after it is fine.

Sample answers from the record:
CN(C)C/C=C/C(=O)Nc1cc2c(Nc3ccc(F)c(Cl)c3F)ncnc2cc1OCCOC(F)F
0.0597 nM
CN(C)C/C=C/C(=O)Nc1cc2c(Nc3cccc(Cl)c3F)ncnc2cc1OCCOC(F)F
0.707 nM
O=C(/C=C/CN1CCC(OC(F)F)CC1)Nc1cc2c(Nc3ccc(F)c(Cl)c3)ncnc2cc1OCCOC(F)F
13.1 nM
O=C(/C=C/CN1CCOCC1)Nc1cc2c(Nc3ccc(Cl)c(Cl)c3F)ncnc2cc1OCCOC(F)F
5.56 nM
COc1cc2ncnc(Nc3ccc(F)c(Cl)c3)c2cc1NC(=O)/C=C/CN1CCC(OC(F)F)CC1
62.8 nM
C#Cc1cccc(Nc2ncnc3cc(OCCOC(F)F)c(NC(=O)/C=C/CN(C)C)cc23)c1F
0.679 nM
CN(C)C/C=C/C(=O)Nc1cc2c(Nc3ccc(Cl)c(Cl)c3F)ncnc2cc1OCCOC(F)F
16.4 nM
O=C(/C=C/CN1CC(F)(F)C1)Nc1cc2c(Nc3ccc(F)c(Cl)c3F)ncnc2cc1OCCOC(F)F
13.7 nM

Each molecule below has a reported value. Please supply its IC50.
1. O=C(/C=C/CN1CCC(OC(F)F)CC1)Nc1cc2c(Nc3cccc(Cl)c3F)ncnc2cc1OCCOC(F)F
2. COc1cc2ncnc(Nc3ccc(Cl)c(Cl)c3F)c2cc1NC(=O)/C=C/CN1CCC(OC(F)F)CC1
3. O=C(/C=C/CN1CCOCC1)Nc1cc2c(Nc3cccc(Cl)c3F)ncnc2cc1OCCOC(F)F
4. O=C(/C=C/CN1CCCCC1)Nc1cc2c(Nc3ccc(F)c(Cl)c3F)ncnc2cc1OCCOC(F)F

Reply text:
["79.5 nM", "817 nM", "10.5 nM", "0.156 nM"]

====

Kindly state AUC(0-inf) for each of the entries shown.
# assay.summary: Plasma and brain exposure in male CD-1 mice (Brain PK)
# Assay type: in vivo
# test.parameters: CD-1, mouse, po, brain, p.o. 25 mg/kg free base
Numbers only, in ng·h/mL.

CN(C)C/C=C/C(=O)Nc1cc2c(Nc3ccc(F)c(Cl)c3F)ncnc2cc1OCCOC(F)F.O=C(O)/C=C\C(=O)O.O=C(O)/C=C\C(=O)O [Example I-9-MA]
5960
CN(C)C/C=C/C(=O)Nc1cc2c(Nc3ccc(F)c(Cl)c3)ncnc2cc1O[C@H]1CCOC1 [Afatinib, reference compound]
704

# ---- query compound ----
Inquiry: Fill in: AUC(0-inf) of O=C(/C=C/CN1CCCCC1)Nc1cc2c(Nc3ccc(F)c(Cl)c3F)ncnc2cc1OCCOC(F)F.O=C(O)/C=C\C(=O)O.O=C(O)/C=C\C(=O)O [Example I-10-MA] is ___
Reply text: 14000

====

# target.of.assay: CYP 1A2 (Homo sapiens)
# Sequence (P05177 whole entry): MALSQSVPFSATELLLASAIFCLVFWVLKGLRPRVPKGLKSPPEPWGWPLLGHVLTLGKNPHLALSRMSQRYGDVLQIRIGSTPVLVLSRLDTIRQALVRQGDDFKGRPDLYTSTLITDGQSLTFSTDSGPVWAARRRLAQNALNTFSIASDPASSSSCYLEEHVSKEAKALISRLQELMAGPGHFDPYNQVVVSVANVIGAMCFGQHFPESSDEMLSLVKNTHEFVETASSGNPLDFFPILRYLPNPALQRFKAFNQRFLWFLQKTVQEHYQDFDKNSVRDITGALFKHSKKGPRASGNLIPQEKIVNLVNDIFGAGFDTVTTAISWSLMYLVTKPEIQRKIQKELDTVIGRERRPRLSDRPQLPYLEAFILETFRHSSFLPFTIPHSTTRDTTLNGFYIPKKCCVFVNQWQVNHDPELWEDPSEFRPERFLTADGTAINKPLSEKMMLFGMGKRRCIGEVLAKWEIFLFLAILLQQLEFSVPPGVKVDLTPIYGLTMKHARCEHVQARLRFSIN
Kindly state IC50 for each of the entries shown.

CN(C)C/C=C/C(=O)Nc1cc2c(Nc3cccc(Cl)c3F)ncnc2cc1OCCOC(F)F.O=C(O)/C=C\C(=O)O [Example I-5-MA]
> 50 µM

Inquiry: Return IC50 measured with CYP 1A2 (Homo sapiens) given this compound: CN(C)C/C=C/C(=O)Nc1cc2c(Nc3ccc(F)c(Cl)c3)ncnc2cc1O[C@H]1CCOC1 [Afatinib, reference compound]
Reply text: > 50 µM

====

# assay.summary: Microsomal stability
# Type: in vitro ADME
# test.parameters: Human liver microsomes with NADPH
Kindly state half-life at 1 μM for each of the entries shown.
Numbers only, in h.

Each compound below has a reported value. Please supply its half-life at 1 μM.
1. O=C(/C=C/CN1CCCCC1)Nc1cc2c(Nc3ccc(F)c(Cl)c3F)ncnc2cc1OCCOC(F)F.O=C(O)/C=C\C(=O)O.O=C(O)/C=C\C(=O)O [Example I-10-MA]
2. CN(C)C/C=C/C(=O)Nc1cc2c(Nc3ccc(F)c(Cl)c3F)ncnc2cc1OCCOC(F)F.O=C(O)/C=C\C(=O)O.O=C(O)/C=C\C(=O)O [Example I-9-MA]

Reply text:
1.45
0.986

====

# assay.summary: Evaluation of P-gp efflux: Caco-2 permeability
# test.parameters: human, Caco-2, pH 7.4
value.type: Papp A→B at 120 min, 5 µM (×10⁻⁶ cm/s)
Give bare numbers, in ×10⁻⁶ cm/s.

Sample answers from the record:
CC(C)NCC(O)COc1cccc2ccccc12 (centres unmarked)
21.1
CN(C)C/C=C/C(=O)Nc1cc2c(Nc3cccc(Cl)c3F)ncnc2cc1OCCOC(F)F.O=C(O)/C=C\C(=O)O
13.5
COc1cc2nc(N3CCN(C(=O)c4ccco4)CC3)nc(N)c2cc1OC
21.7
CN(C)C/C=C/C(=O)Nc1cc2c(Nc3ccc(F)c(Cl)c3)ncnc2cc1O[C@H]1CCOC1 [Afatinib, reference compound]
0.81

# ---- query molecule ----
Inquiry: Fill in: Papp A→B at 120 min, 5 µM of C[C@H]1O[C@@H](O[C@H]2[C@@H](O)C[C@H](O[C@H]3[C@@H](O)C[C@H](O[C@H]4CC[C@@]5(C)[C@H](CC[C@@H]6[C@@H]5C[C@@H](O)[C@]5(C)[C@@H](C7=CC(=O)OC7)CC[C@]65O)C4)O[C@@H]3C)O[C@@H]2C)C[C@H](O)[C@@H]1O is ___
Reply text: 0.75
